System: HT-29
Test: Cytotoxicity is determined as the concentration required to inhibit the growth of human colon adenocarcinoma (HT-29) cell line
Format: functional, cell-based
pIC50: −log10 of the molar value.
reported-endpoint: pIC50

Answered cases to consult:
# smiles-data, pIC50
measured = [
    ("CN(C)CCn1c(=O)c2ccc(NCCCN(C)CCCNc3ccc4c(=O)n(CCN(C)C)c(=O)n5c6ccc([N+](=O)[O-])cc6c(=O)c3c45)c3c(=O)c4cc([N+](=O)[O-])ccc4n(c1=O)c23", "> 10.00"),
    ("CN(C)CCNC(=O)c1ccc(NCCCN(C)CCCNc2ccc(C(=O)NCCN(C)C)c3nc4ccc([N+](=O)[O-])cc4c(O)c23)c2c(O)c3cc([N+](=O)[O-])ccc3nc12", "> 10.00"),
    ("CN(C)CCn1c(=O)c2ccc(NCCCN(C)CCCNc3ccc4c(=O)n(CCN(C)C)c(=O)n5c6ccc(O)cc6c(=O)c3c45)c3c(=O)c4cc(O)ccc4n(c1=O)c23", "> 10.00"),
    ("CN(C)CCN1Nc2c3cc(O)ccc3nc3c(C(=O)NCCN(C)CCNC(=O)c4ccc5c6c(c7cc(O)ccc7nc46)NN5CCN(C)C)ccc1c23", "< 5.00"),
]

Now for a further compound.
Incoming: Kindly state the measured pIC50 obtained for COc1ccc2c(c1)c(=O)c1c(NCCCN(C)CCCNc3ccc4c(=O)n(CCN(C)C)c(=O)n5c6ccc(OC)cc6c(=O)c3c45)ccc3c(=O)n(CCN(C)C)c(=O)n2c31 with HT-29.
Outgoing: > 10.00

----------
Could you please report measured Binding site preference for the items listed next?
System: Nucleic Acid
Assay: Binding site preference is determined as the ratio of Poly (dA-dT)2 to Poly (dG-dC)2
Type: nucleic-acid assay
Answers are plain numbers.

# smiles-data, Binding site preference
measured = [
    ("CN(C)CCn1c(=O)c2ccc(NCCCNc3ccc4c(=O)n(CCN(C)C)c(=O)n5c6ccccc6c(=O)c3c45)c3c(=O)c4ccccc4n(c1=O)c23", 8.9),
    ("CN(C)CCNc1ccc(C(=O)NCCCN(C)CCCNC(=O)c2ccc(NCCN(C)C)c3c(O)c4cc(O)ccc4nc23)c2nc3ccc(O)cc3c(O)c12", 1.6),
    ("CN(C)CCn1c(=O)c2ccc(NCCCCCCCCNc3ccc4c(=O)n(CCN(C)C)c(=O)n5c6ccccc6c(=O)c3c45)c3c(=O)c4ccccc4n(c1=O)c23", 41),
]

Working through the 7 compounds below one at a time, give Binding site preference for each.
1. CN(C)CCn1c(=O)c2ccc(NCCCN(C)CCCNc3ccc4c(=O)n(CCN(C)C)c(=O)n5c6ccc([N+](=O)[O-])cc6c(=O)c3c45)c3c(=O)c4cc([N+](=O)[O-])ccc4n(c1=O)c23
2. COc1ccc2c(c1)-c1nn(CCN(C)C)c3ccc(C(=O)NCCCN(C)CCCNC(=O)c4ccc5c6c(c7cc(OC)ccc7nc46)NN5CCN(C)C)c(c13)N2
3. CN(C)CCn1c(=O)c2ccc(NCCN(C)CCN(C)CCNc3ccc4c(=O)n(CCN(C)C)c(=O)n5c6ccccc6c(=O)c3c45)c3c(=O)c4ccccc4n(c1=O)c23
4. COc1ccc2c(c1)-c1nn(CCN(C)C)c3ccc(C(=O)NCCN(C)C)c(c13)N2
5. CN(C)CCN1Nc2c3ccccc3nc3c(C(=O)NCCN(C)CCNC(=O)c4ccc5c6c(c7ccccc7nc46)NN5CCN(C)C)ccc1c23
6. CN(C)CCn1c(=O)c2ccc(NCCCCCCNc3ccc4c(=O)n(CCN(C)C)c(=O)n5c6ccccc6c(=O)c3c45)c3c(=O)c4ccccc4n(c1=O)c23
7. CN(C)CCn1c(=O)c2ccc(NCCN(C)CCNc3ccc4c(=O)n(CCN(C)C)c(=O)n5c6ccc(O)cc6c(=O)c3c45)c3c(=O)c4cc(O)ccc4n(c1=O)c23

Outgoing:
[2.4, 5.5, 84, 1.6, 4.3, 30, 9.1]

// each compound listed below needs its Binding site preference
1. COc1cc2c(=O)c3c(NCCCN(C)CCCNc4ccc5c(=O)n(CCN(C)C)c(=O)n6c7cc(OC)c(OC)cc7c(=O)c4c56)ccc4c(=O)n(CCN(C)C)c(=O)n(c2cc1OC)c43
2. COc1ccc2nc3c(C(=O)NCCN(C)C)ccc(NCCCN(C)CCCNc4ccc(C(=O)NCCN(C)C)c5nc6ccc(OC)cc6c(O)c45)c3c(O)c2c1
3. CN(C)CCn1c(=O)c2ccc(NCCCN(C)CCCNc3ccc4c(=O)n(CCN(C)C)c(=O)n5c6ccccc6c(=O)c3c45)c3c(=O)c4ccccc4n(c1=O)c23
4. CN(C)CCN1Nc2c3cc(O)ccc3nc3c(C(=O)NCCCN(C)CCCNC(=O)c4ccc5c6c(c7cc(O)ccc7nc46)NN5CCN(C)C)ccc1c23

Outgoing:
[4.6, 1.9, 25, 1.3]
